Target: human TRPC6 (Homo sapiens, UniProt Q9Y210)
Sequence (Q9Y210 1-931): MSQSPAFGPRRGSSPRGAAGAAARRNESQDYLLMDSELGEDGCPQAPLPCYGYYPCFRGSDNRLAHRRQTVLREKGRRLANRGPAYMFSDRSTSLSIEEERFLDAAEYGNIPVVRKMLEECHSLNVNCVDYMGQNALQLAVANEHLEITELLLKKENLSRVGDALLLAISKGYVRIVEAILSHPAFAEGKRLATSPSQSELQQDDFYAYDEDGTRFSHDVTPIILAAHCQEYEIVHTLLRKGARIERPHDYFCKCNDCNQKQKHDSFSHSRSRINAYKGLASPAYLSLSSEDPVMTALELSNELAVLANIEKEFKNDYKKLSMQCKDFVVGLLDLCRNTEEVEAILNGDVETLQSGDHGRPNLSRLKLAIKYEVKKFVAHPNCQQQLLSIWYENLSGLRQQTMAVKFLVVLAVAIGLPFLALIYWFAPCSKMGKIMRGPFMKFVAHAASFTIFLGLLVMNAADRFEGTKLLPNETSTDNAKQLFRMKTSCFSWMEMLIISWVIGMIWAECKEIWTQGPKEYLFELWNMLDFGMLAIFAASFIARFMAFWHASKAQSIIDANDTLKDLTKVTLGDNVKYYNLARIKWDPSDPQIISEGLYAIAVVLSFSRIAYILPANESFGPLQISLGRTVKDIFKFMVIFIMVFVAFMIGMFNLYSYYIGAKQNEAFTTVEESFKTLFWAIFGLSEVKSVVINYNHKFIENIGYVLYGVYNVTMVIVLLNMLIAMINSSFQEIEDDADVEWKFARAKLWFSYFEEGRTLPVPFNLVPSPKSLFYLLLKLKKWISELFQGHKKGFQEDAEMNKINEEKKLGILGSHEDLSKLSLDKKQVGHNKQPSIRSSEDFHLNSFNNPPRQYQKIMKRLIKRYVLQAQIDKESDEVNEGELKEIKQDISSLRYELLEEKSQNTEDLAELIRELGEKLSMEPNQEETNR
Test: TRPC6 calcium flux assay (FLIPR, OAG-stimulated calcium influx)
Details: HEK293 cells stably transfected with human TRPC6, read-out: hTRPC6 Potency
pIC50: −log10 of the molar value.
Decide by pIC50: equal to or exceeding 6 means T, less means F.

Query :: Quick check: does N[C@@H]1CN(c2nc3c(F)cc(F)cc3n2Cc2ncc(F)cn2)CC[C@H]1F [Example 35] have pIC50 greater than or equal to 6?
Result :: T

Query :: Please indicate if the recorded pIC50 for C[C@@H](c1ccc(Cl)c(Cl)c1)n1c(N2CC[C@@H](F)[C@H](N)C2)nc2cc(F)c(F)cc21 [Example 333] meets or exceeds 6.
Result :: F

Query :: Could you tell me if the measured pIC50 of N#Cc1ccc(Cn2c(N3CC[C@](O)(CN)C3)nc3ccccc32)cc1 [Example 177, 2,2,2-trifluoroacetate] reaches 6 or more?
Result :: F

Query :: Tell me whether pIC50 is at least 6 here: CC(C)(C)NC(=O)c1ccc(Cn2c(N3CC[C@@H](F)[C@H](N)C3)nc3ncc(Cl)cc32)nc1 [Example 94]
Result :: T

Query :: Could you tell me if the measured pIC50 of N#Cc1ccc(Cn2c(N3CC[C@@H](F)[C@H](N)C3)nc3ccc(OC(F)(F)F)cc32)nc1 [Example 19] reaches 6 or more?
Result :: T

Query :: Entry N#Cc1ccc(Cn2c(N3CC[C@H]4OCCN[C@@H]4C3)nc3ccccc32)nc1 [Example 131] : is its pIC50 no less than 6?
Result :: T

Origin of measurements: patent US11332459B2
